system: cellular pERK in MIA-PaCa-2 (KRAS-G12C) cell-line; assay: Cell based pERK assay (HTRF), MIA-PaCa-2; details: MIA-PaCa-2 (KRAS-G12C) cells, 2 hours incubation; read-out: MIAPaCa2 pERK EC50
pEC50: −log10 of the molar value.
Each entry gets class 0 if its pEC50 stays under 7, and class 1 if its pEC50 is 7 or above.

Solved entries:
[[record]]
compound = "CCc1c(F)ccc2cc(O)cc(-c3nc4c5c(nc(OC[C@@]67CCCN6C[C@H](F)C7)nc5c3F)N3CCOCCC3CC4)c12 (stereo partly drawn)"
label_value = "class 1"

[[record]]
compound = "Cc1cc(N)nc(-c2c(Cl)c3c4c(nc(OC[C@@]56CCCN5C[C@H](F)C6)nc4c2F)N2CCCOCC2CC3)c1C(F)(F)F (mixture of isomers)"
label_value = "class 0"

[[record]]
compound = "C#Cc1c(F)ccc2cc(O)cc(-c3nc4c5c(nc(OC[C@@]67CCCN6C[C@H](F)C7)nc5c3F)N3CCCCC3(C)CC4)c12 (stereo partly drawn)"
label_value = "class 0"

[[record]]
compound = "CCc1c(F)ccc2cc(O)cc(-c3nc4c5c(nc(OC[C@@]67CCCN6C[C@H](F)C7)nc5c3F)N3CCCC[C@H]3CC4)c12"
label_value = "class 1"

[[record]]
compound = "C#Cc1c(F)ccc2cc(O)cc(-c3nc4c5c(nc(OC[C@@]67CCCN6C[C@H](F)C7)nc5c3F)N3CCCC[C@H]3CC4)c12"
label_value = "class 1"


# input Say whether C#Cc1c(F)ccc2cc(O)cc(-c3c(F)c4c5c(nc(OC[C@@]67CCCN6C[C@H](F)C7)nc5c3F)N3CCCOC[C@@H]3CC4)c12 (atropisomer, axis not shown) [Example 24-1] shows pEC50 of 7 or more.
# output class 1

====

test system: cellular pERK in Kuramochi (WT KRAS) cell-line; assay: Cell based pERK assay (HTRF), Kuramochi; settings: Kuramochi (WT KRAS) cells, 2 hours incubation
Reported EC50 values for the following compounds.

[[record]]
compound = "Cc1cc(N)nc(-c2c(Cl)c3c4c(nc(OC[C@@]56CCCN5C[C@H](F)C6)nc4c2F)N2CCCOCC2CC3)c1C(F)(F)F (mixture of isomers)"
quantity_measured = "EC50"
result = "> 956 nM"

[[record]]
compound = "C#Cc1c(F)ccc2cc(N)cc(-c3nc4c5c(nc(OC[C@@]67CCCN6C[C@H](F)C7)nc5c3F)N3CCCOC[C@@H]3C[C@@H]4C)c12"
quantity_measured = "EC50"
result = "208 nM"

[[record]]
compound = "C#Cc1c(F)ccc2cc(O)cc(-c3c(F)c4c5c(nc(OC[C@@]67CCCN6C[C@H](F)C7)nc5c3F)N3CCCOC[C@@H]3CC4)c12 (mixture of isomers)"
quantity_measured = "EC50"
result = "5.94 nM"

[[record]]
compound = "C#Cc1c(F)ccc2cc(O)cc(C3=C(F)C4N=C(OC[C@@]56CCCN5C[C@H](F)C6)N=C5C4C(=C3F)C(C)=C[C@H]3COCCCN53)c12 (some centres unmarked)"
quantity_measured = "EC50"
result = "11.7 nM"


Now examine the next entry.
# input Given the entry C#Cc1c(F)ccc2cc(O)cc(-c3nc4c5c(nc(OC[C@@]67CCCN6C[C@H](F)C7)nc5c3F)N3CCCOC[C@@H]3C=C4)c12 , report its measured EC50.
# output 4.01 nM
